# Test system: Escherichia coli TOP10
# method_notes: shrunken log2 fold change of peptide-encoding DNA abundance (4.5 h post-induction vs induction); higher = less antimicrobial activity (less host growth inhibition)
# condition_set: time post-induction: 4.5 h; library: site-saturation at positions 5, 18, 19, 20
value_type: shrunken log2 fold change
Write no unit; give the number alone.

Query: shrunken log2 fold change for "RRIRCRPPRLPRPRPRPSVFPRP" ?
Result: -0.614

Query: Reported shrunken log2 fold change for "RRIRIRPPRLPRPRPRPQRNPRP" : what is it?
Result: -0.188

Query: I am curious: what shrunken log2 fold change value has been reported for "RRIRGRPPRLPRPRPRPMNWPRP" ?
Result: 0.179

Query: Value lookup for shrunken log2 fold change; key = "RRIRERPPRLPRPRPRPRDPPRP"
Result: 0.0576

Query: Value lookup for shrunken log2 fold change; key = "RRIRYRPPRLPRPRPRPWTFPRP"
Result: -0.225

Query: Give its shrunken log2 fold change value. Item: "RRIRSRPPRLPRPRPRPQIDPRP"
Result: -0.0914

Query: Query (sequence): "RRIRVRPPRLPRPRPRPIGNPRP" ; field requested: shrunken log2 fold change
Result: -0.194

Query: Endpoint output: shrunken log2 fold change of "RRIRHRPPRLPRPRPRPYNDPRP" . Value?
Result: -0.0648

Query: Find the recorded shrunken log2 fold change belonging to "RRIRLRPPRLPRPRPRPAILPRP" and report it.
Result: 0.0331

Query: # query: shrunken log2 fold change of entry "RRIRHRPPRLPRPRPRPIPLPRP"
Result: -0.193

Query: What value of shrunken log2 fold change has been reported for the following sequence? "RRIRGRPPRLPRPRPRPCCEPRP"
Result: 0.528

Query: What value of shrunken log2 fold change has been reported for the following sequence? "RRIRDRPPRLPRPRPRPQEKPRP"
Result: 0.0105

Query: Reported shrunken log2 fold change for "RRIRMRPPRLPRPRPRPMDYPRP" : what is it?
Result: -0.00149

Query: Suppose we examine the sequence "RRIRLRPPRLPRPRPRPRYHPRP" ; what shrunken log2 fold change value has been reported?
Result: -0.274

Query: GET /values?readout=shrunken log2 fold change&item= "RRIRCRPPRLPRPRPRPPENPRP"
Result: 0.2

---

# System: Escherichia coli TOP10
# method_notes: shrunken log2 fold change of peptide-encoding DNA abundance (4.5 h post-induction vs induction); higher = less antimicrobial activity (less host growth inhibition)
# condition_set: time post-induction: 4.5 h; library: site-saturation at positions 5, 18, 19, 20
Provide the reported shrunken log2 fold change of each item.
Give the value as a plain number.

Query: Field: shrunken log2 fold change (Escherichia coli TOP10). Entry: "RRIRDRPPRLPRPRPRPTFGPRP"
Result: 0.228

Query: Under Escherichia coli TOP10: shrunken log2 fold change value of "RRIRHRPPRLPRPRPRPGIGPRP" ?
Result: -0.0787

Query: Please state recorded shrunken log2 fold change (tested on Escherichia coli TOP10) of "RRIRGRPPRLPRPRPRPMIQPRP"
Result: 0.522

Query: Lab note: need shrunken log2 fold change for "RRIRFRPPRLPRPRPRPEKMPRP" on Escherichia coli TOP10, anyone have it?
Result: 0.0434

Query: Query for Escherichia coli TOP10: what shrunken log2 fold change does the record show for "RRIRFRPPRLPRPRPRPDIDPRP" ?
Result: 0.0707

Query: Enter reported shrunken log2 fold change observed with Escherichia coli TOP10 for "RRIRPRPPRLPRPRPRPKCNPRP"
Result: -0.125

Query: Give recorded shrunken log2 fold change with Escherichia coli TOP10 for the following sequence: "RRIRKRPPRLPRPRPRPIYEPRP"
Result: -0.0432

Query: Lookup: shrunken log2 fold change / Escherichia coli TOP10 / "RRIRDRPPRLPRPRPRPKIYPRP"
Result: -0.684

Query: Hello, I am looking for reported shrunken log2 fold change with Escherichia coli TOP10 for "RRIRNRPPRLPRPRPRPVMSPRP" . Could you help?
Result: 0.0178

Query: Escherichia coli TOP10 / shrunken log2 fold change / "RRIRPRPPRLPRPRPRPMTIPRP" : value?
Result: -0.421

Query: Requested read-out shrunken log2 fold change, target or system Escherichia coli TOP10, entry "RRIRDRPPRLPRPRPRPFIEPRP"
Result: 0.0849

Query: GET /values?readout=shrunken log2 fold change&system=Escherichia coli TOP10&item= "RRIRNRPPRLPRPRPRPEVCPRP"
Result: -0.049

Query: Hi! What's the reported shrunken log2 fold change for "RRIRDRPPRLPRPRPRPLQRPRP" on Escherichia coli TOP10?
Result: -0.00347

Query: What shrunken log2 fold change appears in the records for this sequence with Escherichia coli TOP10? "RRIRKRPPRLPRPRPRPGQGPRP"
Result: 0.205

Query: Kindly state the measured shrunken log2 fold change obtained for "RRIRYRPPRLPRPRPRPHYDPRP" with Escherichia coli TOP10.
Result: -0.557

Query: Query for Escherichia coli TOP10: what shrunken log2 fold change does the record show for "RRIRTRPPRLPRPRPRPCDQPRP" ?
Result: -0.252

Query: Reported shrunken log2 fold change for Escherichia coli TOP10, given "RRIRFRPPRLPRPRPRPQQSPRP" ?
Result: -0.0219

Query: Could you share what shrunken log2 fold change was measured for "RRIRYRPPRLPRPRPRPNVLPRP" , tested on Escherichia coli TOP10?
Result: -0.554

Query: // map "RRIRDRPPRLPRPRPRPWMDPRP" to recorded shrunken log2 fold change (system: Escherichia coli TOP10)
Result: -0.0272

Query: Missing value: shrunken log2 fold change, Escherichia coli TOP10, entry "RRIRWRPPRLPRPRPRPVINPRP" . Fill in?
Result: -0.0708

Query: Identify the measured shrunken log2 fold change of "RRIRGRPPRLPRPRPRPLHLPRP" for Escherichia coli TOP10.
Result: 0.0533

Query: Kindly state the measured shrunken log2 fold change obtained for "RRIRCRPPRLPRPRPRPLSTPRP" with Escherichia coli TOP10.
Result: -0.229

Query: shrunken log2 fold change of "RRIRWRPPRLPRPRPRPQRSPRP" on Escherichia coli TOP10?
Result: 0.172

Query: # value lookup — system Escherichia coli TOP10, readout shrunken log2 fold change, item "RRIRKRPPRLPRPRPRPGETPRP"
Result: 0.476

Query: Given the entry "RRIRPRPPRLPRPRPRPNQGPRP" , what shrunken log2 fold change was observed with Escherichia coli TOP10?
Result: -0.55

Query: Look up shrunken log2 fold change with Escherichia coli TOP10 for this sequence: "RRIRNRPPRLPRPRPRPTMCPRP"
Result: -0.0233

Query: Please provide the recorded shrunken log2 fold change for "RRIRVRPPRLPRPRPRPDIFPRP" , tested on Escherichia coli TOP10.
Result: -0.171

Query: Report shrunken log2 fold change for "RRIRSRPPRLPRPRPRPSNDPRP" tested on Escherichia coli TOP10.
Result: -0.349

Query: What is its shrunken log2 fold change for Escherichia coli TOP10? Entry: "RRIRERPPRLPRPRPRPAIVPRP"
Result: 0.00833

Query: Form field - read-out: shrunken log2 fold change; system: Escherichia coli TOP10; submitted item: "RRIRYRPPRLPRPRPRPDGLPRP"
Result: -0.528

Query: Could you share what shrunken log2 fold change was measured for "RRIRFRPPRLPRPRPRPIIWPRP" , tested on Escherichia coli TOP10?
Result: -0.273

Query: Enter reported shrunken log2 fold change observed with Escherichia coli TOP10 for "RRIRRRPPRLPRPRPRPVFPPRP"
Result: 0.488

Query: Request - read-out shrunken log2 fold change | tested on Escherichia coli TOP10 | sequence "RRIRSRPPRLPRPRPRPVAFPRP"
Result: 0.0876

Query: Recorded shrunken log2 fold change for "RRIRTRPPRLPRPRPRPIKIPRP" with Escherichia coli TOP10, please?
Result: -0.426

Query: Lab note: need shrunken log2 fold change for "RRIRFRPPRLPRPRPRPWDDPRP" on Escherichia coli TOP10, anyone have it?
Result: -0.636

Query: Lab request: please report shrunken log2 fold change under test system Escherichia coli TOP10 for "RRIRSRPPRLPRPRPRPMCPPRP"
Result: -0.0743

Query: For Escherichia coli TOP10, provide shrunken log2 fold change of "RRIRFRPPRLPRPRPRPILKPRP" please.
Result: -0.43

Query: Find the measured shrunken log2 fold change: item "RRIRYRPPRLPRPRPRPFWAPRP" , target or system Escherichia coli TOP10.
Result: -0.306

Query: Param readout= shrunken log2 fold change; system= Escherichia coli TOP10; entry= "RRIRYRPPRLPRPRPRPFYYPRP" ; returns value.
Result: -1.18

Query: # returns recorded shrunken log2 fold change (system: Escherichia coli TOP10) for "RRIRQRPPRLPRPRPRPEFWPRP"
Result: 0.238

Query: What measured shrunken log2 fold change is associated with "RRIRIRPPRLPRPRPRPEMYPRP" on Escherichia coli TOP10?
Result: -0.174

Query: Recall the recorded shrunken log2 fold change for "RRIRQRPPRLPRPRPRPVEDPRP" with Escherichia coli TOP10 and state it.
Result: -0.0933

Query: Give shrunken log2 fold change (Escherichia coli TOP10) of the following sequence: "RRIRDRPPRLPRPRPRPQHPPRP"
Result: -0.00435

Query: What value of shrunken log2 fold change on Escherichia coli TOP10 does "RRIRDRPPRLPRPRPRPKLHPRP" have?
Result: 0.464

Query: Entry "RRIRHRPPRLPRPRPRPSGPPRP" , system Escherichia coli TOP10: what shrunken log2 fold change was measured?
Result: 0.082

Query: # query: shrunken log2 fold change | item "RRIRRRPPRLPRPRPRPFPNPRP" | system: Escherichia coli TOP10
Result: 0.558

Query: Record "RRIRDRPPRLPRPRPRPYYVPRP" : what is its shrunken log2 fold change with Escherichia coli TOP10?
Result: 0.0365

Query: Which shrunken log2 fold change is reported with Escherichia coli TOP10 for this entry: "RRIRTRPPRLPRPRPRPMCFPRP" ?
Result: 0.0222

Query: Give the reported shrunken log2 fold change for "RRIRMRPPRLPRPRPRPEAYPRP" (system: Escherichia coli TOP10).
Result: 0.036

Query: Param readout= shrunken log2 fold change; system= Escherichia coli TOP10; entry= "RRIRIRPPRLPRPRPRPRAHPRP" ; returns value.
Result: -0.201

Query: What shrunken log2 fold change appears in the records for this sequence with Escherichia coli TOP10? "RRIRSRPPRLPRPRPRPMLLPRP"
Result: 3.53

Query: Form field: shrunken log2 fold change recorded for "RRIRVRPPRLPRPRPRPPLPPRP" with Escherichia coli TOP10 (enter value)
Result: 0.325

Query: Item: "RRIRNRPPRLPRPRPRPEYPPRP" Test system: Escherichia coli TOP10 Read-out: shrunken log2 fold change Value: ?
Result: -0.243

Query: # value lookup — system Escherichia coli TOP10, readout shrunken log2 fold change, item "RRIRNRPPRLPRPRPRPIVEPRP"
Result: 0.0466

Query: What measured shrunken log2 fold change is associated with "RRIRTRPPRLPRPRPRPNAKPRP" on Escherichia coli TOP10?
Result: -0.0531

Query: Requested read-out shrunken log2 fold change, target or system Escherichia coli TOP10, entry "RRIRFRPPRLPRPRPRPSIGPRP"
Result: -0.139

Query: Form: Entry = "RRIRSRPPRLPRPRPRPDEYPRP" | System = Escherichia coli TOP10 | shrunken log2 fold change = ____
Result: -0.205

Query: Which shrunken log2 fold change is reported with Escherichia coli TOP10 for this entry: "RRIRPRPPRLPRPRPRPLIEPRP" ?
Result: -0.0879

Query: What value of shrunken log2 fold change on Escherichia coli TOP10 does "RRIRCRPPRLPRPRPRPIGYPRP" have?
Result: -0.00724

Query: Please state recorded shrunken log2 fold change (tested on Escherichia coli TOP10) of "RRIRDRPPRLPRPRPRPGRHPRP"
Result: 0.186

Query: Escherichia coli TOP10 / shrunken log2 fold change / "RRIRKRPPRLPRPRPRPEFKPRP" : value?
Result: 0.165

Query: Lab note: need shrunken log2 fold change for "RRIRTRPPRLPRPRPRPMCMPRP" on Escherichia coli TOP10, anyone have it?
Result: -0.0542

Query: Param readout = shrunken log2 fold change; param system = Escherichia coli TOP10; param query = "RRIRIRPPRLPRPRPRPDDTPRP" ; response: value;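 further: peptides expressed intracellularly from a pBAD plasmid library in pooled LB shake-flask culture, induced with 0.3% L-arabinose, DNA abundance read by NGS, three biological replicates, DESeq2 with apeglm shrinkage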
Result: -0.131

Values were extracted from the supplement of paper PMC9112550.
